Biological target: UniProt Q99705
Experiment: High throughput functional screening FLIPR/FDSS6000 (intracellular Ca2+ evoked by MCH)
Assay type: cell-based
Conditions: FLIPR/FDSS, antagonist activity vs 50 nM MCH; class by percent of control at 10^−7 M or IC50; table after the classification; read-out: class
Structures can show the parent of a compound that is named as a salt.
experimental_readout: IC50

Cc1cc(N[C@H]2CC[C@@H](NC(=O)c3cncc(F)c3)CC2)nc2ccccc12 ... < 50 nM
Cc1cc(N[C@H]2CC[C@@H](NC(=O)COc3cccc(Cl)c3)CC2)nc2ccccc12 [Example 3099, hydrochloride] ... < 50 nM
O=C(N[C@H]1CC[C@@H](NCc2ccc3ccccc3n2)CC1)c1ccc(F)c(F)c1 [Example 3156, dihydrochloride] ... > 200 nM
Cc1cc(C(=O)N[C@H]2CC[C@@H](Nc3ccc4ccccc4n3)CC2)ccc1F [Example 3046, hydrochloride] ... < 50 nM
Cc1cc(N(C)C)nc(N[C@H]2CC[C@@H](NC(=O)c3cc(F)c(F)c(F)c3)CC2)n1 [Example 3385, hydrochloride] ... < 50 nM
CCN(CC(=O)N[C@H]1CC[C@@H](Nc2ccc3ccccc3n2)CC1)c1ccc(Cl)cc1 [Example 3154, dihydrochloride] ... < 50 nM
Cc1cccc(Oc2ncccc2C(=O)N[C@H]2CC[C@@H](Nc3cc(C)c4ccccc4n3)CC2)c1 [Example 3097, hydrochloride] ... < 50 nM

Asked: // fetch UniProt Q99705 IC50 for CN(C)c1cc(N[C@H]2CC[C@@H](CNC(=O)c3ccc(F)c(F)c3)CC2)nc2ccccc12 [Example 3190, hydrochloride]
Given back: 50 to 200 nM

These measurements were taken from patent US20050197350A1.
